src = the supplement of paper PMC12042874

- protocol: amyloid nucleation score (Sup35N fusion, yeast selection) (log enrichment); library NNK2; higher = more nucleation; inactive = no reads after selection;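 further: zero at mode of non-aggregating sequences after 7 days selection at 30°C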
parameter: amyloid nucleation score

> print(dat)
               sequence    result
1          YVRYFSIQTGHV  inactive
2  ISDFQACIRGDRWDEKGYIS  inactive
3  ICKRVVVLWHSKEPDALFVG  inactive

* * *

amyloid nucleation score by entry:
- protocol: amyloid nucleation score (Sup35N fusion, yeast selection) (log enrichment); library NNK2; higher = more nucleation; inactive = no reads after selection
Just the number, please, no unit after it.

Example entries begin here.
> print(dat)
               sequence  recorded.number
1  CHLFVFLGLPRQWVKSRPYA             0.18
2  SMFLMSCTDGVFHNRNLHVI           -0.662

Enquiry: Query (sequence): SNGFREYCATICNGTGDRRG ; field requested: amyloid nucleation score
Return: 0.651

* * *

- protocol: amyloid nucleation score (Sup35N fusion, yeast selection) (log enrichment); library NNK1; higher = more nucleation; inactive = no reads after selection
parameter: amyloid nucleation score
Just the number, please, no unit after it.

Example entries begin here.
> print(dat)
              substance  recorded.number
1  SLRITLVWGRMQCGPESVCR            0.745
2  WGMIWCTIYGSVSNNNINLV              4.2
3             PSLASCSRL             0.28

Proceed to the following item.
Enquiry: Query (substance): SFLSSGINRSRCY ; field requested: amyloid nucleation score
Return: 0.154

* * *

- protocol: amyloid nucleation score (Sup35N fusion, yeast selection) (log enrichment); library NNK2; higher = more nucleation; inactive = no reads after selection
Lab note: anything with amyloid nucleation score at or over 0.1 counts as true (1); the rest go in false (0).

These solved cases illustrate the format of a correct answer.
> print(dat)
              substance     label
1  INFGWCFYMTRRWVCGMVFR  true (1)
2  SGLLVSNKFWGICTNYFGQR  true (1)
3                FRFSNR  true (1)
4  GISCYLRVHTSANDESCSER  true (1)
5    MHPVANSGNSEHMFSMLY  true (1)

Enquiry: Item VYLVRKWRSGWRYLTRVI with amyloid nucleation score of 0.1 or above?
Return: true (1)

* * *

amyloid nucleation score by entry:
- protocol: amyloid nucleation score (Sup35N fusion, yeast selection) (log enrichment); library NNK2; higher = more nucleation; inactive = no reads after selection
Just the number, please, no unit after it.

Enquiry: Query (sequence): FKTVCVGKCLVFMVTDAELI ; field requested: amyloid nucleation score
Return: -1.49

Enquiry: Query (sequence): LDSSMSTGNLRLCFFESICS ; field requested: amyloid nucleation score
Return: 0.232

Enquiry: Query (sequence): HWWLVIAMNRLGCFGEFMMR ; field requested: amyloid nucleation score
Return: -0.547

* * *

- protocol: amyloid nucleation score (Sup35N fusion, yeast selection) (log enrichment); library NNK1; higher = more nucleation; inactive = no reads after selection
The following ranges of amyloid nucleation score define the classes used here: lowest: < -0.03; middle: ≥ -0.03 and < 0.4; highest: ≥ 0.4

These solved cases illustrate the format of a correct answer.
> print(dat)
              substance    label
1  IRTVKADNMRIWQAQRSSEI   middle
2  GEFVWKEASATCCSWGKLRR  highest
3                CSDRRS   lowest

Enquiry: Given MVLRHRKCLSAFPWAFHAPY , name the class its amyloid nucleation score places it in.
Return: highest

Enquiry: Given FRDFWLDNVLNMMVGCAARD , name the class its amyloid nucleation score places it in.
Return: lowest

Enquiry: Given FFALIYI , name the class its amyloid nucleation score places it in.
Return: middle

Enquiry: Given RVSKYQYCIMYWRYRAI , name the class its amyloid nucleation score places it in.
Return: highest

Enquiry: Given IFLGPVLFVGDTRFCHVLIN , name the class its amyloid nucleation score places it in.
Return: highest

Enquiry: Given SVCGSLSC , name the class its amyloid nucleation score places it in.
Return: highest

Enquiry: Given WNSFTELRAHMLYHLKKIII , name the class its amyloid nucleation score places it in.
Return: highest

Enquiry: Given LVNIHVIQKAFVGTVASSKV , name the class its amyloid nucleation score places it in.
Return: highest
